Test: Selectivity ratio of IC50 for African green monkey Vero cells to IC50 for human A549 cells
Type: ADME, cell-based
Conditions: Vero cells and A549 cells, read-out: Ratio IC50
Measured property: selectivity ratio

molecular_string=CC[C@H]1OC(=O)[C@H](C)C(=O)[C@H](C)[C@@H](O[C@@H]2O[C@H](C)C[C@H](N(C)Cc3cccc(-c4cn(CCCCCCC(=O)NO)nn4)c3)[C@H]2O)[C@@](C)(OC)C[C@@H](C)C2=NCCN3C(=O)O[C@@]1(C)[C@H]3[C@H]2C numeric_readout=2.7

* * *

Molecular target: Protein deacetylase HDAC6 (Homo sapiens)
Sequence (Q9UBN7 whole entry): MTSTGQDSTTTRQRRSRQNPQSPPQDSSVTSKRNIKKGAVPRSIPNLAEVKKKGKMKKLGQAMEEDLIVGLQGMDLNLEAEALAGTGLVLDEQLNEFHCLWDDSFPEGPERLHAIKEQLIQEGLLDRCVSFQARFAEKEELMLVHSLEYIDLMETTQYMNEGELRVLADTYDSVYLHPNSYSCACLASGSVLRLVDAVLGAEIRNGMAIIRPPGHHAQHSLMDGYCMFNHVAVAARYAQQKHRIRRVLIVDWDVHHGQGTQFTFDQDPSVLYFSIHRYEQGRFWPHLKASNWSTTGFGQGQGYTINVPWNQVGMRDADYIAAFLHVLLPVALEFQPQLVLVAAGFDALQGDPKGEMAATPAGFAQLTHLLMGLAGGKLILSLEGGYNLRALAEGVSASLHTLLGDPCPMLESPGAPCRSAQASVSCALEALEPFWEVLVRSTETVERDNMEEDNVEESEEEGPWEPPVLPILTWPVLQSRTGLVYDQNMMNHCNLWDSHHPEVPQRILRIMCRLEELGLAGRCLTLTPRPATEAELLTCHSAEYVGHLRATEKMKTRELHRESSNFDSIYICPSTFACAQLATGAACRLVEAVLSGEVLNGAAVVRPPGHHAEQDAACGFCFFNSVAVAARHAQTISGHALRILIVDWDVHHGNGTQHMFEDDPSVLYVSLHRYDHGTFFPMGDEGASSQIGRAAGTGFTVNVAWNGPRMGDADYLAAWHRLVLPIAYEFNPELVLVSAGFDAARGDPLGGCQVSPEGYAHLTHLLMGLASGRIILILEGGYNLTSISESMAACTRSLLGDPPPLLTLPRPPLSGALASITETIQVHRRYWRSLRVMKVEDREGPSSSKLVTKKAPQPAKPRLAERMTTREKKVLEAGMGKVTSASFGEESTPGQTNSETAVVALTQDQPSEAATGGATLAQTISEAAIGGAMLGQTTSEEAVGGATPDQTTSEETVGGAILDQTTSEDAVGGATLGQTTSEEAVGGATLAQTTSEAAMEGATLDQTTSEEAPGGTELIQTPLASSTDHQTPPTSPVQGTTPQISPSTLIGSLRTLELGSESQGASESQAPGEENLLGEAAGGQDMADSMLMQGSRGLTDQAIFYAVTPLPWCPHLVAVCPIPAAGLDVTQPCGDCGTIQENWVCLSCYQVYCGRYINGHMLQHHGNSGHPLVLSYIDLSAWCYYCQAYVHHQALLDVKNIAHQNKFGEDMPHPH
Assay: Inhibition of recombinant HDAC6 (unknown origin) expressed in Escherichia coli BL21(DE3) after 60 mins using trichostatin A by label-free mass spectrometry-based SAMDI assay
pIC50: −log10 of the molar value.
Below, each entry is listed alongside its reported pIC50.
Measured property: pIC50

compound=CC[C@H]1OC(=O)[C@H](C)[C@@H](O[C@@H]2C[C@](C)(OC)[C@H](O)[C@@H](C)O2)[C@@H](C)[C@@H](O[C@H]2O[C@@H](C)C[C@@H](N(C)Cc3ccc(-c4cn(CCCC(=O)NO)nn4)cc3)[C@@H]2O)[C@](C)(OC)C[C@@H](C)C(=O)[C@H](C)[C@H](O)[C@]1(C)O value_comparator== numeric_readout=7.15
compound=CC[C@@H]1OC(=O)[C@H](C)[C@@H](O[C@@H]2C[C@](C)(OC)[C@H](O)[C@@H](C)O2)[C@@H](C)[C@@H](O[C@@H]2O[C@H](C)C[C@H](N(C)Cc3ccccc3-c3cn(CCCCCCC(=O)NO)nn3)[C@H]2O)[C@](C)(O)C[C@@H](C)CN(C)[C@H](C)[C@@H](O)[C@]1(C)O value_comparator== numeric_readout=7.51
compound=CC[C@H]1OC(=O)[C@H](C)C(=O)[C@H](C)[C@@H](O[C@@H]2O[C@H](C)C[C@H](N(C)Cc3ccc(-c4cn(CC(=O)NO)nn4)cc3)[C@H]2O)[C@@](C)(OC)C[C@@H](C)C2=NCCN3C(=O)O[C@@]1(C)[C@H]3[C@H]2C value_comparator=< numeric_readout=5.00
compound=CC[C@H]1OC(=O)[C@H](C)C(=O)[C@H](C)[C@@H](O[C@@H]2O[C@H](C)C[C@H](N(C)Cc3ccccc3-c3cn(CCCCCCC(=O)NO)nn3)[C@H]2O)[C@@](C)(OC)C[C@@H](C)C2=NCCN3C(=O)O[C@@]1(C)[C@H]3[C@H]2C value_comparator== numeric_readout=7.12
compound=CC[C@@H]1OC(=O)[C@H](C)[C@@H](O[C@@H]2C[C@](C)(OC)[C@H](O)[C@@H](C)O2)[C@@H](C)[C@@H](O[C@@H]2O[C@H](C)C[C@H](N(C)Cc3cccc(-c4cn(CCCCCCC(=O)NO)nn4)c3)[C@H]2O)[C@](C)(O)C[C@@H](C)CN(C)[C@H](C)[C@@H](O)[C@]1(C)O value_comparator== numeric_readout=7.39
compound=CC[C@H]1OC(=O)[C@H](C)C(=O)[C@H](C)[C@@H](O[C@@H]2O[C@H](C)C[C@H](N(C)Cc3ccc(-c4cn(CCC(=O)NO)nn4)cc3)[C@H]2O)[C@@](C)(OC)C[C@@H](C)C2=NCCN3C(=O)O[C@@]1(C)[C@H]3[C@H]2C value_comparator== numeric_readout=5.76
compound=CC[C@H]1OC(=O)[C@@H](C)[C@H](O[C@H]2C[C@@](C)(OC)[C@@H](O)[C@H](C)O2)[C@H](C)[C@H](O[C@H]2O[C@@H](C)C[C@@H](N(C)Cc3ccc(-c4cn(CCCC(=O)NO)nn4)cc3)[C@@H]2O)[C@@](C)(O)C[C@H](C)CN(C)[C@@H](C)[C@H](O)[C@@]1(C)O value_comparator== numeric_readout=6.97
compound="CC[C@@H]1OC(=O)[C@@H](C)[C@H](O[C@H]2C[C@@](C)(OC)[C@@H](O)[C@H](C)O2)[C@H](C)[C@H](O[C@@H]2O[C@H](C)C[C@H](N(C)Cc3ccc(-c4cn(CCCCCCC(=O)NO)nn4)cc3)[C@H]2O)[C@@](C)(OC)C[C@H](C)C(=O)[C@@H](C)[C@@H](O)[C@@]1(C)O (stereo in doubt)" value_comparator== numeric_readout=8.18
compound=CC[C@@H]1OC(=O)[C@H](C)[C@@H](O[C@@H]2C[C@](C)(OC)[C@@](O)(CN(C)Cc3ccc(-c4cn(CCCCCC(=O)NO)nn4)cc3)[C@@H](C)O2)[C@@H](C)[C@@H](O[C@@H]2O[C@H](C)C[C@H](N(C)C)[C@H]2O)[C@](C)(O)C[C@@H](C)CN(C)[C@H](C)[C@@H](O)[C@]1(C)O value_comparator== numeric_readout=7.50
compound=CC[C@H]1OC(=O)[C@H](C)[C@@H](O[C@@H]2C[C@](C)(OC)[C@@](O)(CN(C)Cc3ccc(-c4cn(CCCCCC(=O)NO)nn4)cc3)[C@@H](C)O2)[C@@H](C)[C@@H](O[C@H]2O[C@@H](C)C[C@@H](N(C)C)[C@@H]2O)[C@](C)(OC)C[C@@H](C)C(=O)[C@H](C)[C@H](O)[C@]1(C)O value_comparator== numeric_readout=8.23
compound=CC[C@@H]1OC(=O)[C@H](C)[C@@H](O[C@@H]2C[C@](C)(OC)[C@@](O)(CN(C)Cc3ccc(-c4cn(CCCC(=O)NO)nn4)cc3)[C@@H](C)O2)[C@@H](C)[C@@H](O[C@@H]2O[C@H](C)C[C@H](N(C)C)[C@H]2O)[C@](C)(O)C[C@@H](C)CN(C)[C@H](C)[C@@H](O)[C@]1(C)O value_comparator== numeric_readout=6.74
compound=CC[C@H]1OC(=O)[C@H](C)C(=O)[C@H](C)[C@@H](O[C@@H]2O[C@H](C)C[C@H](N(C)Cc3ccc(-c4cn(CCCCC(=O)NO)nn4)cc3)[C@H]2O)[C@@](C)(OC)C[C@@H](C)C2=NCCN3C(=O)O[C@@]1(C)[C@H]3[C@H]2C value_comparator== numeric_readout=7.11
compound=CC[C@@H]1OC(=O)[C@@H](C)[C@H](O[C@H]2C[C@@](C)(OC)[C@](O)(CN(C)Cc3ccc(-c4cn(CC(=O)NO)nn4)cc3)[C@H](C)O2)[C@H](C)[C@H](O[C@@H]2O[C@H](C)C[C@H](N(C)C)[C@H]2O)[C@@](C)(OC)C[C@H](C)C(=O)[C@@H](C)[C@@H](O)[C@@]1(C)O value_comparator== numeric_readout=5.27
compound=CC[C@H]1OC(=O)[C@H](C)C(=O)[C@H](C)[C@@H](O[C@@H]2O[C@H](C)C[C@H](N(C)Cc3ccc(-c4cn(CCCC(=O)NO)nn4)cc3)[C@H]2O)[C@@](C)(OC)C[C@@H](C)C2=NCCN3C(=O)O[C@@]1(C)[C@H]3[C@H]2C value_comparator== numeric_readout=6.71

* * *

System: A549
Test: Cytotoxicity against human A549 cells after 72 hrs by MTS assay
Format: functional, cell-based
Details: a549
Measured property: IC50

molecular_string=CC[C@H]1OC(=O)[C@H](C)C(=O)[C@H](C)[C@@H](O[C@@H]2O[C@H](C)C[C@H](N(C)Cc3ccccc3-c3cn(CCCCCCC(=O)NO)nn3)[C@H]2O)[C@@](C)(OC)C[C@@H](C)C2=NCCN3C(=O)O[C@@]1(C)[C@H]3[C@H]2C result="Not Active"
molecular_string=CC[C@H]1OC(=O)[C@@H](C)[C@H](O[C@H]2C[C@@](C)(OC)[C@](O)(CN(C)Cc3ccc(-c4cn(CCCCCCC(=O)NO)nn4)cc3)[C@H](C)O2)[C@H](C)[C@H](O[C@H]2O[C@@H](C)C[C@@H](N(C)C)[C@@H]2O)[C@@](C)(O)C[C@H](C)CN(C)[C@@H](C)[C@H](O)[C@@]1(C)O result="Not Active"

* * *

Biological target: Histone deacetylase 8 (Homo sapiens)
Sequence (Q9BY41 whole entry): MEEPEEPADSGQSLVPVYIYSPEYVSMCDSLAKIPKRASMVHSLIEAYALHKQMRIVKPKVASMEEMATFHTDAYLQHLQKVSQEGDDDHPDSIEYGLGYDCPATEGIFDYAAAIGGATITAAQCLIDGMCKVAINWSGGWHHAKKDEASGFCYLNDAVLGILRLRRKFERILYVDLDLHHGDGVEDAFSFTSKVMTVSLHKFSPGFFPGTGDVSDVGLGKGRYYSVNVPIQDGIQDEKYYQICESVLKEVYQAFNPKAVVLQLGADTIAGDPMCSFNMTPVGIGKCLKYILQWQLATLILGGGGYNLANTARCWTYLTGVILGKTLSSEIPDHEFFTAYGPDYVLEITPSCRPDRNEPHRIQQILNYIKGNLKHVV
Experiment: Inhibition of recombinant HDAC8 (unknown origin) expressed in Escherichia coli BL21(DE3) after 60 mins using trichostatin A by label-free mass spectrometry-based SAMDI assay
pIC50: −log10 of the molar value.
Below, each entry is listed alongside its reported pIC50.
Measured property: pIC50

molecule="CC[C@H]1OC(=O)[C@H](C)[C@@H](O[C@@H]2C[C@](C)(OC)[C@H](O)[C@@H](C)O2)[C@@H](C)[C@@H](O[C@H]2O[C@@H](C)C[C@@H](N(C)Cc3ccc(-c4cn(CCCCCC(=O)NO)nn4)cc3)[C@@H]2O)[C@](C)(OC)C[C@@H](C)C(=O)[C@H](C)[C@H](O)[C@]1(C)O (stereo in doubt)" numeric_readout=5.93
molecule=CC[C@@H]1OC(=O)[C@H](C)[C@@H](O[C@@H]2C[C@](C)(OC)[C@H](O)[C@@H](C)O2)[C@@H](C)[C@@H](O[C@@H]2O[C@H](C)C[C@H](N(C)Cc3ccc(-c4cn(CCCCC(=O)NO)nn4)cc3)[C@H]2O)[C@](C)(O)C[C@@H](C)CN(C)[C@H](C)[C@@H](O)[C@]1(C)O numeric_readout=5.27
molecule=CC[C@H]1OC(=O)[C@@H](C)[C@H](O[C@H]2C[C@@](C)(OC)[C@](O)(CN(C)Cc3ccc(-c4cn(CCCCCCC(=O)NO)nn4)cc3)[C@H](C)O2)[C@H](C)[C@H](O[C@H]2O[C@@H](C)C[C@@H](N(C)C)[C@@H]2O)[C@@](C)(O)C[C@H](C)CN(C)[C@@H](C)[C@H](O)[C@@]1(C)O numeric_readout=6.09
